- testTarget: UniProt:Q01201
- Sequence (Q01201 whole entry): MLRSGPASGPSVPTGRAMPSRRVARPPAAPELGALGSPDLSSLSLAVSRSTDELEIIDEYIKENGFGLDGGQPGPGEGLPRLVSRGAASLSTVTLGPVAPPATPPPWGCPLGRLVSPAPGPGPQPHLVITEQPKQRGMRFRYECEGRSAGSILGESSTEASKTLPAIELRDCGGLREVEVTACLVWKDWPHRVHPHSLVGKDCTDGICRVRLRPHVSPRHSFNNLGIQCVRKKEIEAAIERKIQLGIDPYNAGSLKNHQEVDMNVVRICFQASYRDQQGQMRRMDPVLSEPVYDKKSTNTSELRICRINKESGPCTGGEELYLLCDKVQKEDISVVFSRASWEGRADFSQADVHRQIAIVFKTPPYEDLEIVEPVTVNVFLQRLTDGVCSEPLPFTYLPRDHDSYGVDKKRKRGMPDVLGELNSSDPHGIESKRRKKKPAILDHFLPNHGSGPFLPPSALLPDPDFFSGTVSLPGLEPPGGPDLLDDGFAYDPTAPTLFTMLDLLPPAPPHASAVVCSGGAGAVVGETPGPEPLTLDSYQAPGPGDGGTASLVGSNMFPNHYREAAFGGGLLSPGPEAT
- assayComment: TransAM NF-κB Family DNA Binding ELISA, RelB
recordedEndpoint: inhibition at 5 µM (%)
Give the quantity in %, number only.

{"compound": "CC(C)OC(=O)OC1C(NC(=O)c2ccccc2O)=CC(=O)C2OC21 (racemic)", "testTarget": "UniProt:Q01201", "inhibition at 5 µM, %": 2}
{"compound": "CC(C)CC(=O)Oc1ccccc1C(=O)NC1=CC(=O)C2OC2C1O (racemic)", "testTarget": "UniProt:Q01201", "inhibition at 5 µM, %": 0}
{"compound": "O=C(CC1CCCCC1)Oc1ccccc1C(=O)NC1=CC(=O)C2OC2C1O (racemic)", "testTarget": "UniProt:Q01201", "inhibition at 5 µM, %": 3}

What measured inhibition at 5 µM is associated with CC(C)OC(=O)Oc1ccccc1C(=O)NC1=CC(=O)C2OC2C1OC(=O)OC(C)C (racemic) on UniProt:Q01201?
2
